Target: human CXCR3 (N-delta 4) (Homo sapiens, UniProt P49682)
Construct: CD8 leader; Flag tag; expressed in transfected cells; membranes used
Sequence (P49682 5-368 limits assumed): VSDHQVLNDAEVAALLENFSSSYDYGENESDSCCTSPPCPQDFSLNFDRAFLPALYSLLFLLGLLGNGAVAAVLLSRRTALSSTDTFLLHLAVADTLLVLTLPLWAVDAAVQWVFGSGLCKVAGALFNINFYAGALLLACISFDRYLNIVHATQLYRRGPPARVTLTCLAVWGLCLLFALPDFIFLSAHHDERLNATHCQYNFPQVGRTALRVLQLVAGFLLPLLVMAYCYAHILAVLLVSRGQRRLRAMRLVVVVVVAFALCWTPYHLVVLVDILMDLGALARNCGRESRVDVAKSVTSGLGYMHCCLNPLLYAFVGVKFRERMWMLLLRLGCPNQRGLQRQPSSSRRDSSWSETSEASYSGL
Test: Human CXCR3 (N-delta 4) scintillation proximity assay (SPA), [125I] IP-10 binding
Conditions: IC50 rating; Ba/F3-hCXCR3 (N-delta 4) membranes, 25 pM [125I] IP-10
pIC50: −log10 of the molar value.
# maps each entry to its pIC50

Task: Which pIC50 is listed for CNC(=O)c1cnc(N2CCN(C3CCN(Cc4ccc(Cl)nc4)CC3)[C@@H](C)C2)c(Cl)c1 ?
Output: < 7.00

Task: Which pIC50 is listed for N#Cc1ccc(C(=O)N2CCC(N3CCN(c4ncc(C(=O)NCc5ccc(Br)cc5)cc4Cl)CC3)CC2)cc1 ?
Output: < 7.00

Task: Which pIC50 is listed for O=C(NCc1ccc(Cl)cc1)c1cnc(N2CCN(C3CCN(Cc4ccc(Cl)cc4)CC3)CC2)c(Cl)c1 ?
Output: 7.00 to 7.60

Task: Which pIC50 is listed for N#Cc1ccc(C(=O)N2CCC(N3CCN(c4ncc(C(=O)NCc5ccc(C(F)(F)F)cc5)cc4Br)CC3)CC2)cc1 ?
Output: < 7.00

Task: Which pIC50 is listed for C[C@H]1CN(c2ncc(C(=O)NCc3ccc(F)c(F)c3)cc2Cl)CCN1C1CCN(Cc2ccc(Cl)cc2)CC1 ?
Output: > 7.60

Task: Which pIC50 is listed for CC[C@H]1CN(c2ncc(C(=O)N=C(N)N)cc2Cl)CCN1C1CCN(Cc2ccc(Br)cc2F)CC1 ?
Output: < 7.00

Task: Which pIC50 is listed for CC[C@H]1CN(c2ncc(C(=O)NC)cc2Cl)CCN1C1CCN(Cc2ccc(Cl)cc2)CC1 ?
Output: > 7.60

Source: patent US7776862B2
